Tested on: SF-539 CNS
method.description: NCI tumour cell line growth inhibition, 48 h
quantity: TGI

// solved cases for TGI follow
compound | target.or.system | TGI
O=C=Nc1ccc(Cc2ccc(N=C=O)cc2)cc1 (tested in a mixture with another compound) | SF-539 CNS | > 25 µg/mL
CCOC(=O)c1c(C)c2c(n1C)CSc1cc(S(=O)(=O)c3ccccc3)c(=O)[nH]c1-2 | SF-539 CNS | > 100 µM
Cc1cccc(NC(=O)CC2C(=O)Nc3ccccc3S2(=O)=O)c1C (stereo not drawn) | SF-539 CNS | 37.6 µM
Cc1c2c(cc[n+]1Cc1ccccc1)c1ccc(OCC3CCCCC3)cc1n2CC1CCCCC1 | SF-539 CNS | 2.88 µM
CN1N=C(c2ccncc2)OC1c1ccc(Cl)c(Cl)c1 (stereo not drawn) | SF-539 CNS | > 100 µM

I have 8 compounds here; please give me TGI for each one.
1. COc1ccc2cc(C(=O)/C=C/c3ccc(OC)c(OC)c3)ccc2c1
2. C=CC1=C(C)C2=NC1=CC1=NC(=C(CC)/C1=C/O)C=C1C=C3C(=O)C(C(=O)OC)C(=C4NC(=C2)C(C)C4CCC(=O)OC/C=C(\C)CCCC(C)CCCC(C)CCCC(C)C)C3=N1 (stereo not drawn) (tested in a mixture with another compound)
3. COc1cc(OC)c(/C=N/N=C(\N)NO)c(OC)c1
4. COC1OC(C)C(OC(=O)C(C)(C)C)C(C)(O)C1O (stereo not drawn)
5. CC(O[Si](C)(C)C(C)(C)C)[C@H](NC(=O)OCC(Cl)(Cl)Cl)C(=O)O (stereo partly drawn)
6. COc1cc2c[n+](C)c3c4ccccc4ccc3c2cc1OC
7. CCOC(=O)c1cc(C(=O)c2cc(OC)cc(OC)c2)n2ncccc12
8. CCNC1CC(C(C)(C)NCC)CC=C1C (stereo not drawn)

16.3 µM
> 100 µM
> 100 µM
> 100 µM
> 100 µM
23.7 µM
40.2 µM
> 100 µM
